B1: glmS ribozyme (parent)
chain: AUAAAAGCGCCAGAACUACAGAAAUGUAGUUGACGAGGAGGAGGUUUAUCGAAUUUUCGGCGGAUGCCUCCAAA

Variants of: B1
PROTOCOL: self-cleavage kobs at 40 uM GlcN6P; higher = faster cleavage; RNA array
RECORDED_CONDITIONS: with glucosamine-6-phosphate
Variants at the floor of the assay were thinned out.
MEASUREMENT_NAME: self-cleavage kobs at 40 uM GlcN6P

Record excerpt, results attached:
1. U2C
0.000889 s⁻¹
2. A36C U45G U65C
< 1e-05 s⁻¹
3. C11U A14G
0.000229 s⁻¹
4. G44C A48U
< 1e-05 s⁻¹
5. G13C G41A
< 1e-05 s⁻¹

Value sought for every listed variant: self-cleavage kobs at 40 uM GlcN6P.
1. A6C G13U C58A A64C
2. A12G U45A
3. C34U A64C

A:
< 1e-05 s⁻¹
4.21e-05 s⁻¹
< 1e-05 s⁻¹

Value sought for every listed variant: self-cleavage kobs at 40 uM GlcN6P.
1. C10A G32C G41A
2. G29C C68A

A:
["< 1e-05 s⁻¹", "< 1e-05 s⁻¹"]

The reported measurements were obtained from the supplement of paper PMC7125110.
